Answer each item with its documented melting point.

Documented melting point of FC(F)(F)c1cccc(N2CCN(Cc3cn4cc(Cl)ccc4n3)CC2)c1 : 145 to 146 °C

# compound COc1ccccc1CCc1ccccc1C(=O)O ; its melting point = 118 to 119 °C

Note to self: melting point recorded for Clc1cccc(CNc2ncc(Cc3ccncc3)c3ccccc23)c1 was 141 to 142 °C

Reported melting point ( Nc1ccc(OCC2CN(c3ccccn3)C(=O)O2)cc1 (stereo not drawn) ) = 141 to 143 °C

Looking up NC(=O)C=Cc1cccc(Cl)c1 , I see its melting point listed as 180 °C

Record COC(=O)c1ccc(C(O)c2cc3cc(C(F)(F)F)ccc3n2S(=O)(=O)c2ccc3c(c2)N(C)CCO3)cc1 (stereo not drawn) , field melting point: 80 °C

The measured melting point associated with COc1ccc(-c2ccc(C(=O)Nc3ccc4cc(CN5CCCC5)cnc4c3C)cc2)cc1 reads 190 to 192 °C

melting point measured on O=C1CCC(c2ccccc2)(c2ccccc2)C2CN(C(Cc3ccccc3)=NCc3ccco3)CC12 (stereo not drawn) = 128 °C

Form field melting point, entry CC(C)(C)OC(=O)CCC1(C(=O)O)CCCC1 : 78 to 81 °C

The compound listed as CC(C)(C)OC(=O)N1CCN(c2ccc(NC=O)nc2)CC1 shows melting point equal to 178 to 180 °C

Recorded result, Nc1ccc(Oc2ccccc2Oc2ccc(N)c(O)c2)cc1O , melting point: > 180 °C

Input Fc1ccc(-c2cc(NCc3cccc(NCc4ccccc4)n3)n[nH]2)cc1 . Output melting point: 117 to 118 °C

For Nc1ccc(C=CC2CSC(=O)NN2)cc1 (stereo not drawn) the compound record lists melting point as 188 to 196 °C

According to the records, this compound CC(=O)Nc1cc([N+](=O)[O-])c(C(=O)O)c([N+](=O)[O-])c1O displays melting point of 199 to 203 °C

Reported melting point for O=c1cc(-c2ccc3[nH]ncc3c2)oc2ncc(CN3CCOCC3)cc12 was 293 °C

Input O=C(NN1CCOCC1)c1ccc(O)c(Br)c1 . Output melting point: 216 to 218 °C

Entry under test: Fc1ccc(Oc2ccc(-c3c[nH]cn3)cc2)cc1 . Its melting point was 165 to 168 °C

Entry Cc1cc(C2(C(F)(F)F)CC(n3cncn3)=NO2)ccc1NC(=O)OC(C)(C)C (stereo not drawn) , melting point reported as 46 to 48 °C

The value of melting point measured for the compound O=C(Nc1c(C(O)(C(F)(F)F)C(F)(F)F)ccc2ccccc12)c1ccc(Br)cc1 turned out to be 155 to 156 °C

Query COc1ccc(C(=O)N2CCCC(=O)c3ccc(Cl)cc3CCC2=O)cc1 yields melting point of 143 °C

For reference, reported melting point for Cc1cnc(-c2ccncc2)nc1N stands at 210 to 213 °C

Recorded melting point (compound Cc1c(C(=O)Nc2cccc(C#N)c2N2CCC(CN3CCOCC3)CC2)cnn1-c1ccc(Cl)cc1 ): 235 °C

Notebook: Cc1cc2nn(C)c(=O)n2nc1-c1cccc(N)c1 , melting point read as 192 to 195 °C

melting point reported for this compound CCN1CCc2c(NC(C)=O)ccc(Br)c2C1 : 168 to 169 °C

Entry NC(=O)c1ccc(CCN2CC=C(c3c[nH]c(-c4ccc(F)cc4)c3-c3ccncc3)CC2)cc1 ; melting point = 202 to 204 °C

So, COCCCOc1cc(N(C)S(=O)(=O)c2ccccn2)c2[nH]c(C3=NCC(CN4CCS(=O)CC4)S3)cc2c1 (stereo not drawn) ? Its melting point was 176 to 177 °C

// recorded melting point for CCN1CCC(OC)(c2cccc(F)c2F)C1 (single isomer, unassigned; (+)) : 104 to 106 °C

Entry COc1ccc(-c2cc3c(s2)c(=O)c(SC)cn3C)cc1 , melting point reported as 182 to 184 °C

What the record says about CCCCS(=O)(=O)NCc1ccc(C(=O)CN2CCN(c3ccncc3)CC2)cc1 : melting point is 101 to 103 °C

// recorded melting point for CCCc1nn2ncc(C(=O)OCC)c2n1Cc1ccc(-c2ccccc2-c2nnnn2C(c2ccccc2)(c2ccccc2)c2ccccc2)cc1 : 106 to 108 °C

Just so you know, measured melting point for OC1CC2(CCNC2)c2ccc(Cl)c(Cl)c21 (stereo not drawn) came out at 167 to 170 °C

melting point in this record for O=C1c2cccnc2-c2cccnc21 : 158 to 159 °C

Entry O=C1CCCCC1=CC(=O)c1ccccc1 — recorded melting point = 75 to 77 °C

This collection of values is drawn from a melting point compilation (Tetko et al.; mined from patent text by program, amines drawn as free bases though some values may be those of a salt).
